# condition_summary: 305.9 K; 101.33 kPa; Liquid; Vibrating tube method
attribute_measured: mass density (kg/m3)
Answers are plain numbers, in kg/m3.

# compound, mass density (kg/m3)
data = [
    ("CC(=O)[O-].C[NH2+]CCO [N-methyl-2-hydroxyethylammonium acetate]", 1096.19),
]

Dear reader, for each entry below, please note its mass density.
1. CC(C)C(=O)[O-].C[NH2+]CCO [2-hydroxy-N-methylethanaminium isobutyrate]
2. C[NH2+]CCO.O=C[O-] [2-hydroxy-N-methylethanaminium formate]

Result:
1038.39
1123.92

====

Please respond with reported speed of sound for every item in the list.
# condition_summary: 308.15 K; 101.33 kPa; Liquid; Pulse-echo method
One number for each entry, in m/s.

Worked cases, answers included:
# compound, reading
rows = [
    ("CC(C)C(=O)[O-].C[NH2+]CCO [2-hydroxy-N-methylethanaminium isobutyrate]", 1583.1),
    ("CCC(=O)[O-].C[NH2+]CCO [2-hydroxy-N-methylethanaminium propionate]", 1660.5),
    ("C[NH2+]CCO.O=C[O-] [2-hydroxy-N-methylethanaminium formate]", 1795.8),
    ("CCCCC(=O)[O-].C[NH2+]CCO [2-hydroxy-N-methylethanaminium pentanoate]", 1517.6),
]

Below: the item to evaluate.
Record summary for CCCC(=O)[O-].C[NH2+]CCO [N-methyl-2-hydroxyethylammonium butanoate] : reported speed of sound = 1583.1

====

# condition_summary: 321.9 K; 101.33 kPa; Liquid; Pulse-echo method
± gives the expanded uncertainty stated by the source.
Kindly supply the reported speed of sound values for the records listed here.
Quick note: unit goes after the number.

Observe how each entry below is paired with its result.
# molecule, attribute_measured, reading
measured = [
    ("CC(C)C(=O)[O-].C[NH2+]CCO [2-hydroxy-N-methylethanaminium isobutyrate]", "speed of sound", "1544.2 ± 2.1 m/s"),
    ("CCCC(=O)[O-].C[NH2+]CCO [N-methyl-2-hydroxyethylammonium butanoate]", "speed of sound", "1540.1 ± 2.1 m/s"),
    ("CCCCC(=O)[O-].C[NH2+]CCO [2-hydroxy-N-methylethanaminium pentanoate]", "speed of sound", "1475.4 ± 2.1 m/s"),
    ("C[NH2+]CCO.O=C[O-] [2-hydroxy-N-methylethanaminium formate]", "speed of sound", "1769.1 ± 2.2 m/s"),
]

Then this molecule:
molecule CCC(=O)[O-].C[NH2+]CCO [2-hydroxy-N-methylethanaminium propionate] , speed of sound observed: 1619.7 ± 2.1 m/s

====

# condition_summary: 303.4 K; 101.33 kPa; Liquid; Pulse-echo method
attribute_measured: speed of sound (m/s)
One number for each entry, in m/s.

Recorded speed of sound, per entry:
# compound, units_symbol, speed of sound
data = [
    ("CCCCC(=O)[O-].C[NH2+]CCO [2-hydroxy-N-methylethanaminium pentanoate]", "m/s", 1532.3),
    ("CCCC(=O)[O-].C[NH2+]CCO [N-methyl-2-hydroxyethylammonium butanoate]", "m/s", 1597.9),
    ("CCC(=O)[O-].C[NH2+]CCO [2-hydroxy-N-methylethanaminium propionate]", "m/s", 1674.5),
]

Required: speed of sound, one value per compound below.
1. CC(C)C(=O)[O-].C[NH2+]CCO [2-hydroxy-N-methylethanaminium isobutyrate]
2. C[NH2+]CCO.O=C[O-] [2-hydroxy-N-methylethanaminium formate]

Result:
1. 1596.4
2. 1805.1
